Test system: human diploid embryonic lung cell line MRC-5
MEASUREMENT DESCRIPTION: XTT cytotoxicity assay on MRC-5 cells
Format: cell-based
EXPERIMENTAL SETUP: 10 µM, XTT
Method: In order to assess the cytotoxicity of these novel quinolone derivatives, the effect on the viability of a human lung fibroblast cell line MRC-5, was measured using XTT proliferation assay. […] The cytotoxic activity of the synthetic compounds was determined by means of an XTT Cell Proliferation Kit II (Roche Diagnostics, Mannheim, Germany) using the human diploid embryonic lung cell line MRC-5 [11]. […]
I'd appreciate it if you could supply Metabolic active MRC-5 cells (%) values for the items below.
Reply numerically in %, unit not repeated.

Ask: Give me measured Metabolic active MRC-5 cells (%), please, for this molecule: CCCCCCCCC#CCCc1cc(=O)c2ccccc2n1CCCC
Reply: 94.9

Ask: Give me measured Metabolic active MRC-5 cells (%), please, for this molecule: CCCCCCCCCCCCC#Cc1cc(=O)c2ccccc2n1C
Reply: 99.7

Ask: Give me measured Metabolic active MRC-5 cells (%), please, for this molecule: CCCCCCCCCCC#Cc1cc(=O)c2ccccc2n1C
Reply: 101

Ask: Give me measured Metabolic active MRC-5 cells (%), please, for this molecule: CCCCCCCCCCC#CCCc1cc(=O)c2ccccc2n1CC
Reply: 97.3

Ask: Give me measured Metabolic active MRC-5 cells (%), please, for this molecule: CCCCCCCC#CCCc1cc(=O)c2ccccc2n1CCC
Reply: 100

Ask: Give me measured Metabolic active MRC-5 cells (%), please, for this molecule: CCCCCCCCC#CCCc1cc(=O)c2ccccc2n1CCC
Reply: 100

Ask: Give me measured Metabolic active MRC-5 cells (%), please, for this molecule: CCCCCCCCCCCCC#CCCc1cc(=O)c2ccccc2n1C
Reply: 93.9

Ask: Give me measured Metabolic active MRC-5 cells (%), please, for this molecule: CCCCCCCC#CCCc1cc(=O)c2ccccc2n1CC
Reply: 102

Ask: Give me measured Metabolic active MRC-5 cells (%), please, for this molecule: CCCCCCCCC#Cc1cc(=O)c2ccccc2n1CC
Reply: 101

Ask: Give me measured Metabolic active MRC-5 cells (%), please, for this molecule: CCCCCCCCC#CCCc1cc(=O)c2ccccc2n1C
Reply: 97.6

Ask: Give me measured Metabolic active MRC-5 cells (%), please, for this molecule: CCCCCCCCC#Cc1cc(=O)c2ccccc2n1CCC
Reply: 103

Ask: Give me measured Metabolic active MRC-5 cells (%), please, for this molecule: CCCCCCCCCCC#CCCc1cc(=O)c2ccccc2n1CCC
Reply: 92.7

Ask: Give me measured Metabolic active MRC-5 cells (%), please, for this molecule: CCCCCCC#CCCc1cc(=O)c2ccccc2n1C
Reply: 100

Ask: Give me measured Metabolic active MRC-5 cells (%), please, for this molecule: CCCCCCC#CCCc1cc(=O)c2ccccc2n1CC
Reply: 102

Ask: Give me measured Metabolic active MRC-5 cells (%), please, for this molecule: CCCCCCCCCCC#CCCc1cc(=O)c2ccccc2n1C
Reply: 100
